- method description: viability loss of HPDE-C7K cells – cell-based, fluorescence, HTS, primary screen (AID 431);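 note: 0% = DMSO solvent wells and 100% = doxorubicin-treated wells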
- condition label: HPDE-C7K KRASV12 cells, Alamar Blue viability, 48 h; at 10 µM; hits give high values
Screen size: about 63,000 compounds; about 1,100 (1.7%) were called active. Many of the other results were omitted from the sample, so actives are more common in it than they were. Measured potencies and affinities stand elsewhere.
value kind: cytotoxicity (%)

1) Cc1ccc(CNC2=NCCCCC2)n1C
0.1
2) COc1ccc(CCNC(=O)C2CCN(S(=O)(=O)c3cc(OC)ccc3OC)CC2)cc1
2.3
3) O=C(O)CCC(=O)c1ccc2c(c1)OCCO2
1.9
